assayTarget: Cannabinoid receptor 1 (Homo sapiens, UniProt P21554)
Sequence (P21554 whole entry): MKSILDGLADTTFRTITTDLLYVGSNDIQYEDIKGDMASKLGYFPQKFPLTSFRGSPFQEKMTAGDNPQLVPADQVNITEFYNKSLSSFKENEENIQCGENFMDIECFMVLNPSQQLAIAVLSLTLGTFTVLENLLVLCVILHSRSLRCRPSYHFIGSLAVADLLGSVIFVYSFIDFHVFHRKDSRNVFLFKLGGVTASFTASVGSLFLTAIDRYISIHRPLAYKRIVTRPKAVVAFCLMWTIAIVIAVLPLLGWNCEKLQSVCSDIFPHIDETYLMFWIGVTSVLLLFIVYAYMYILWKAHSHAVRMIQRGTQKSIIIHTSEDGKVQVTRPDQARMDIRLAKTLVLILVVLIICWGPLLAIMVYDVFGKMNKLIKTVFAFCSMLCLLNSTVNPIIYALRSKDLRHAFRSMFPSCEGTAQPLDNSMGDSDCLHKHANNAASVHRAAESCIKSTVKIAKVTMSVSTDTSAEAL
testDetails: biochemical
Description: Inhibitory concentration against human recombinant cannabinoid receptor type 1 expressed in Chinese Hamster Ovary (CHO) cells
Would you kindly list log10 of IC50 for each of these molecules?
The base-10 logarithm of IC50, taken with IC50 in nM, is what appears here.

Some solved cases for reference:
>  <structureSmilesString>
O=C(NN1CCCCC1)c1nc(-c2ccc(Cl)cc2)c(-c2ccc(Cl)cc2)[nH]1

>  <assayTarget>
Cannabinoid receptor 1 (Homo sapiens, UniProt P21554)

>  <log10 of IC50>
3.78

$$$$
>  <structureSmilesString>
Cn1c(C(=O)NC2CCCC2)nc(-c2ccc(Cl)cc2Cl)c1-c1ccc(Cl)cc1

>  <assayTarget>
Cannabinoid receptor 1 (Homo sapiens, UniProt P21554)

>  <log10 of IC50>
1.23

$$$$
>  <structureSmilesString>
Cn1c(C(=O)NC2CCCCC2)nc(-c2ccc(Cl)cc2)c1-c1ccc(Cl)cc1Cl

>  <assayTarget>
Cannabinoid receptor 1 (Homo sapiens, UniProt P21554)

>  <log10 of IC50>
1.66

$$$$
>  <structureSmilesString>
Cn1c(C(=O)NN2CCCCC2)nc(-c2ccc(Cl)cc2)c1-c1ccc(Cl)cc1

>  <assayTarget>
Cannabinoid receptor 1 (Homo sapiens, UniProt P21554)

>  <log10 of IC50>
2.41

$$$$
>  <structureSmilesString>
O=C(NC1CCCCC1)c1nc(-c2ccc(Cl)cc2)c(-c2ccc(Cl)cc2)o1

>  <assayTarget>
Cannabinoid receptor 1 (Homo sapiens, UniProt P21554)

>  <log10 of IC50>
2.70

$$$$
>  <structureSmilesString>
Cn1c(C(=O)NN2CCCCC2)nc(-c2ccc(Cl)cc2Cl)c1-c1ccc(Cl)cc1Cl

>  <assayTarget>
Cannabinoid receptor 1 (Homo sapiens, UniProt P21554)

>  <log10 of IC50>
1.20

$$$$
>  <structureSmilesString>
Cn1c(C(=O)NN2CCCCC2)nc(-c2ccc(Cl)cc2Cl)c1-c1ccc(Cl)cc1

>  <assayTarget>
Cannabinoid receptor 1 (Homo sapiens, UniProt P21554)

>  <log10 of IC50>
0.79

$$$$
>  <structureSmilesString>
O=C(NC1CCCCC1)c1nc(-c2ccc(Cl)cc2)c(-c2ccc(Cl)cc2Cl)o1

>  <assayTarget>
Cannabinoid receptor 1 (Homo sapiens, UniProt P21554)

>  <log10 of IC50>
3.00

$$$$

# log10 of IC50 of `Cn1c(C(=O)NC(C)(C)C)nc(-c2ccc(Cl)cc2)c1-c1ccc(Cl)cc1` = 2.95

====

testDetails: Plasma clearance in rat
Format: ADME, organism-based
testContext: read-out: Clp
Would you kindly list clearance for each of these molecules?
Give bare numbers, in mL/min/kg.

>  <structureSmilesString>
Cn1c(C(=O)NC2CCCCC2)nc(-c2ccc(Cl)cc2Cl)c1-c1ccc(Cl)cc1

>  <unitsLabel>
mL/min/kg

>  <clearance>
20

$$$$

Consider the additional molecule presented here.
# clearance of `Cn1c(C(=O)NN2CCCCC2)nc(-c2ccc(Cl)cc2Cl)c1-c1ccc(Cl)cc1` = 28

====

Would you kindly list Kp at 2 h for each of these compounds?
testDetails: Brain-to-plasma ratio after 2 hrs in rat
Format: ADME
Numbers only.

For each of the compounds below, state Kp at 2 h.
1. Cn1c(C(=O)NC2CCCCC2)nc(-c2ccc(Cl)cc2Cl)c1-c1ccc(Cl)cc1
2. Cn1c(C(=O)NN2CCCCC2)nc(-c2ccc(Cl)cc2Cl)c1-c1ccc(Cl)cc1

1.3
2.9

====

assayTarget: Cannabinoid receptor 1 (Homo sapiens, UniProt P21554)
testDetails: Effective concentration against human recombinant cannabinoid receptor type 1 expressed in Chinese Hamster Ovary (CHO) cells
Format: cell-based
observable: EC50 (µM)
Numbers only, in µM.

Some solved cases for reference:
>  <structureSmilesString>
Cn1c(C(=O)NC2CCCCC2)nc(-c2ccc(Cl)cc2)c1-c1ccc(Cl)cc1

>  <unitsLabel>
µM

>  <readoutNumber>
0.5

$$$$
>  <structureSmilesString>
Cn1c(C(=O)NN2CCCCC2)nc(-c2ccc(Cl)cc2)c1-c1ccc(Cl)cc1

>  <unitsLabel>
µM

>  <readoutNumber>
0.1

$$$$
>  <structureSmilesString>
Cn1c(C(=O)NN2CCCCC2)nc(-c2ccc(Cl)cc2Cl)c1-c1ccc(Cl)cc1

>  <unitsLabel>
µM

>  <readoutNumber>
0.005

$$$$

Consider the additional compound presented here.
# EC50 of `Cn1c(C(=O)NC2CCCCC2)nc(-c2ccc(Cl)cc2Cl)c1-c1ccc(Cl)cc1` = 0.018

====

Would you kindly list Kp at 0.25 h for each of these compounds?
testDetails: Brain-to-plasma ratio after 0.25 hrs in rat
Type: ADME
Numbers only.

>  <structureSmilesString>
Cn1c(C(=O)NN2CCCCC2)nc(-c2ccc(Cl)cc2Cl)c1-c1ccc(Cl)cc1

>  <readoutNumber>
3

$$$$

Consider the additional compound presented here.
# Kp at 0.25 h of `Cn1c(C(=O)NC2CCCCC2)nc(-c2ccc(Cl)cc2Cl)c1-c1ccc(Cl)cc1` = 0.8

====

Would you kindly list IC50 for each of these compounds?
assayTarget: UniProt:P21554
testDetails: biochemical
One number for each entry, in nM.

>  <structureSmilesString>
Cn1c(C(=O)NC2CCCCC2)nc(-c2ccc(Cl)cc2Cl)c1-c1ccc(Cl)cc1

>  <unitsLabel>
nM

>  <IC50>
4

$$$$
>  <structureSmilesString>
O=C(NN1CCCCC1)c1nc(-c2ccc(Cl)cc2)c(-c2ccc(Cl)cc2Cl)o1

>  <unitsLabel>
nM

>  <IC50>
470

$$$$
>  <structureSmilesString>
Cn1c(C(=O)N2CCCCC2)nc(-c2ccc(Cl)cc2)c1-c1ccc(Cl)cc1

>  <unitsLabel>
nM

>  <IC50>
1100

$$$$
>  <structureSmilesString>
Cn1c(C(=O)Nc2ccccc2)nc(-c2ccc(Cl)cc2Cl)c1-c1ccc(Cl)cc1

>  <unitsLabel>
nM

>  <IC50>
60

$$$$
>  <structureSmilesString>
O=C(NC1CCCCC1)c1nc(-c2ccc(Cl)cc2Cl)c(-c2ccc(Cl)cc2)o1

>  <unitsLabel>
nM

>  <IC50>
80

$$$$

For each of the compounds below, state IC50.
1. O=C(NC1CCCCC1)c1nc(-c2ccc(Cl)cc2Cl)c(-c2ccc(Cl)cc2Cl)o1
2. Cn1c(C(=O)NN2CCCCC2)nc(-c2ccccc2)c1-c1ccccc1
3. CCCCCCNC(=O)c1nc(-c2ccc(Cl)cc2)c(-c2ccc(Cl)cc2)n1C

1: 70; 2: 1900; 3: 540

For each of the compounds below, state IC50.
1. O=C(NN1CCCCC1)c1nc(-c2ccc(Cl)cc2Cl)c(-c2ccc(Cl)cc2Cl)o1
2. Cc1ccc(-c2nc(C(=O)NC3CCCCC3)n(C)c2-c2ccc(C)cc2)cc1
3. Cn1c(C(=O)NC2CCCCC2)nc(-c2ccc(Cl)cc2Cl)c1-c1ccc(Cl)cc1Cl
4. CN(C(=O)c1nc(-c2ccc(Cl)cc2Cl)c(-c2ccc(Cl)cc2)n1C)C1CCCCC1
5. Cn1c(C(=O)N2CCCCC2)nc(-c2ccccc2)c1-c1ccccc1
6. Cn1c(C(=O)NC2CCCCCC2)nc(-c2ccc(Cl)cc2Cl)c1-c1ccc(Cl)cc1

1. 200
2. 900
3. 5.2
4. 70
5. 19000
6. 8

For each of the compounds below, state IC50.
1. Cn1c(C(=O)NC2CCCCC2)nc(-c2ccc(Cl)cc2)c1-c1ccc(Cl)cc1
2. O=C(NN1CCCCC1)c1nc(-c2ccc(Cl)cc2Cl)c(-c2ccc(Cl)cc2)o1
3. Cn1c(C(=O)NN2CCCCC2)nc(-c2ccc(Cl)cc2)c1-c1ccc(Cl)cc1Cl
4. CCn1c(C(=O)NC2CCCCC2)nc(-c2ccc(Cl)cc2Cl)c1-c1ccc(Cl)cc1

1: 450; 2: 260; 3: 190; 4: 4.1
